# TGT: UniProt:P29477
# PROCEDURE TEXT: Inhibitory concentration required to produce 50% inhibition of the response was determined; range-0.150.47 uM
# Assay type: functional
QUANTITY MEASURED: IC50
Write the figure, then the unit, nothing else.

Reported IC50, compound `COc1cc(OC)c(OC)cc1/C=C/C(=O)c1ccccc1C(F)(F)F` : ____
280 nM

----------
# TGT: UniProtKB P29477
# Sequence (P29477 whole entry): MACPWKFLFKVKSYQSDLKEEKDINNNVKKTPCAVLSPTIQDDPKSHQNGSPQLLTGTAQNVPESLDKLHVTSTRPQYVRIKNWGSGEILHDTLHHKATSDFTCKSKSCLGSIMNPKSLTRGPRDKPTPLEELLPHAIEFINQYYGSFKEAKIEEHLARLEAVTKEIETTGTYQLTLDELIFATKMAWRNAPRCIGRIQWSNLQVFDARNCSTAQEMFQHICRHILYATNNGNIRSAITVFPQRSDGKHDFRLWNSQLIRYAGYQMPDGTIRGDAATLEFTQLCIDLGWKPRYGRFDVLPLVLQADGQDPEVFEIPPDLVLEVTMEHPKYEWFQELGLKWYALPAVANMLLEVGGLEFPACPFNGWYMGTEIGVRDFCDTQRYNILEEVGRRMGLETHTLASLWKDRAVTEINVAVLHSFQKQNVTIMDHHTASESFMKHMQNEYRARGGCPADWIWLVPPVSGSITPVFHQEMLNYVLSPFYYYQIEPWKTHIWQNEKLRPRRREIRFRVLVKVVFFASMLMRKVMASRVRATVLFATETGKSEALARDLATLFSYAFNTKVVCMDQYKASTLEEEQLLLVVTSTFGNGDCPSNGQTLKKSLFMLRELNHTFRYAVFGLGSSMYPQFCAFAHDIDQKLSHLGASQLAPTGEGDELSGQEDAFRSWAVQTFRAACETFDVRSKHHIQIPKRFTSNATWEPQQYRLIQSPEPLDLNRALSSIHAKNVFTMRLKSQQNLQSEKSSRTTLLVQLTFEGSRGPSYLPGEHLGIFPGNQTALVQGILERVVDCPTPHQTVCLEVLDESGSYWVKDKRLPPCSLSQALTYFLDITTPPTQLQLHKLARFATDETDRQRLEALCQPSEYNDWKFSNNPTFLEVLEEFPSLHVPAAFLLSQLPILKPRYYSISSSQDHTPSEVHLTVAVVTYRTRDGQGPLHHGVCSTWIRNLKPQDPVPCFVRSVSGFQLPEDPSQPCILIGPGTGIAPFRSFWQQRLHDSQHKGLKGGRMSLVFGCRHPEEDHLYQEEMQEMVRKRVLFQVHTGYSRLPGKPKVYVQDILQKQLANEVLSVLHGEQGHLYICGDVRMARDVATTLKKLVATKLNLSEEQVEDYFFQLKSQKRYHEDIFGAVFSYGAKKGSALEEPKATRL
# PROCEDURE TEXT: Inhibitory concentration required to produce 50% inhibition of the response was determined
# Format: functional
QUANTITY MEASURED: pIC50
One number for each entry, as −log10 of the molar value.

Reported pIC50, molecule `COc1cc(/C=C/C(=O)c2ccc(F)cc2)cc(OC)c1OC` : ____
7.52

----------
# TGT: Nitric oxide synthase, inducible (Mus musculus, UniProt P29477)
# Sequence (P29477 whole entry): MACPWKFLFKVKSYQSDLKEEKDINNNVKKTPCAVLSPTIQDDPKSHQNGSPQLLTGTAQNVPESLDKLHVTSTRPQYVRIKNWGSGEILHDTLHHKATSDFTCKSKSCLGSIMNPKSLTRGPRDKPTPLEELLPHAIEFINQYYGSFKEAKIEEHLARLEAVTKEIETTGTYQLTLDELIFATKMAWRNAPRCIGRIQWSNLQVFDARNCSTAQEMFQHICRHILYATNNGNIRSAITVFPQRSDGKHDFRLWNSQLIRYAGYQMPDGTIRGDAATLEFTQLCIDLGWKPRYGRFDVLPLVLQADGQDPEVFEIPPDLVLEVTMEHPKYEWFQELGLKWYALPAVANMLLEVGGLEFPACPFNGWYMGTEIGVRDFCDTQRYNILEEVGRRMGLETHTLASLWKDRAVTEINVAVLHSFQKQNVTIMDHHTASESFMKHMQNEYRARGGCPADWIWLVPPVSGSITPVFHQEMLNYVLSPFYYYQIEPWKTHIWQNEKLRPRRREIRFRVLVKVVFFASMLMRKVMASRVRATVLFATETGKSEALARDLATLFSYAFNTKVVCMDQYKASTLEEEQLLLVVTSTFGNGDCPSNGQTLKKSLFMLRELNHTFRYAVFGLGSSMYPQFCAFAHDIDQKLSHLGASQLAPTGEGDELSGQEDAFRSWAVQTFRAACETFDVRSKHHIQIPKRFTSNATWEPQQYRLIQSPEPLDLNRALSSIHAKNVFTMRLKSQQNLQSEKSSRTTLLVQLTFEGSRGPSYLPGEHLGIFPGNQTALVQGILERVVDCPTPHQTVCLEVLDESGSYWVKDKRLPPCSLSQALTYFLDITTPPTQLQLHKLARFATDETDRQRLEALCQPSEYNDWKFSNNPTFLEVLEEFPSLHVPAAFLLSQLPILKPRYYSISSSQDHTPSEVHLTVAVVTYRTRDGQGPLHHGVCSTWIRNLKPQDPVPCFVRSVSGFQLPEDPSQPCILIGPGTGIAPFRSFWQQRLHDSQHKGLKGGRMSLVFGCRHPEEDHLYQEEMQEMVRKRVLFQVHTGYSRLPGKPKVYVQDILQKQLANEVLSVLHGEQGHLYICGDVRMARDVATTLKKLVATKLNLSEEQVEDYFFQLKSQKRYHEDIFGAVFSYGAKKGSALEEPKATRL
# PROCEDURE TEXT: Inhibitory concentration required to produce 50% inhibition of the response was determined; range-0.541.16 uM
# Assay type: functional
QUANTITY MEASURED: IC50 (nM)
Give bare numbers, in nM.

Reported IC50, compound `COc1cc(OC)c(/C=C/C(=O)c2cccc(C(F)(F)F)c2)c(OC)c1` : ____
1840

----------
# TGT: UniProtKB P29477
# PROCEDURE TEXT: Inhibitory concentration required to produce 50% inhibition of the response was determined; range-0.461.81 uM
# Assay type: functional
QUANTITY MEASURED: IC50 (nM)
Give bare numbers, in nM.

Reported IC50, molecule `COc1ccc(/C=C/C(=O)c2ccccc2C(F)(F)F)c(OC)c1` : ____
840

----------
# TGT: Nitric oxide synthase, inducible (Mus musculus)
# PROCEDURE TEXT: Inhibitory concentration required to produce 50% inhibition of the response was determined; range-0.431.85 uM
# Type: functional
QUANTITY MEASURED: pIC50
Numbers only, as −log10 of the molar value.

Reported pIC50, compound `COc1ccc(OC)c(/C=C/C(=O)c2ccccc2C(F)(F)F)c1` : ____
6.04

----------
# TGT: Nitric oxide synthase, inducible (Mus musculus)
# PROCEDURE TEXT: Inhibitory concentration required to produce 50% inhibition of the response was determined; range-0.811.70 uM
# Assay type: functional
QUANTITY MEASURED: IC50 (nM)
Give bare numbers, in nM.

Reported IC50, compound `COc1cc(OC)c(/C=C/C(=O)c2ccccc2C(F)(F)F)c(OC)c1` : ____
1020

----------
# TGT: Nitric oxide synthase, inducible (Mus musculus, UniProt P29477)
# PROCEDURE TEXT: Inhibitory concentration required to produce 50% inhibition of the response was determined; range-0.431.12 uM
# Type: functional
QUANTITY MEASURED: IC50 (nM)
One number for each entry, in nM.

Test system Nitric oxide synthase, inducible (Mus musculus, UniProt P29477); read-out IC50; what value for `COc1cc(OC)c(OC)cc1/C=C/C(=O)c1ccc(F)cc1F` ?
640

----------
# TGT: Nitric oxide synthase, inducible (Mus musculus) (UniProt P29477)
# PROCEDURE TEXT: Percent inhibition of Nitrite accumulation at a concentration of 10 uM was determined in RAW 264.7 cells
# Type: functional, cell-based
Assign Yes to entries whose inhibition meets or exceeds 70%; assign No to the rest.

Illustrative cases are given below, each with its answer.
COc1cc(OC)c(/C=C/C(=O)c2ccccc2C(F)(F)F)c(OC)c1: Yes
COc1cc(OC)c(OC)cc1/C=C/C(=O)c1ccc(F)cc1F: Yes
COc1ccc(/C=C/C(=O)c2ccc(F)cc2F)cc1OC: No
COc1ccc(/C=C/C(=O)c2ccccc2C(F)(F)F)c(OC)c1: Yes
COc1cc(OC)c(OC)cc1/C=C/C(=O)c1ccccc1C(F)(F)F: Yes

Threshold query (inhibition >= 70%) on `COc1cc(OC)c(/C=C/C(=O)c2ccc(C(F)(F)F)cc2)c(OC)c1`
No

Threshold query (inhibition >= 70%) on `COc1ccc(OC)c(/C=C/C(=O)c2ccc(C(F)(F)F)cc2)c1`
No

Threshold query (inhibition >= 70%) on `COc1ccc(OC)c(/C=C/C(=O)c2ccccc2C(F)(F)F)c1`
Yes

Threshold query (inhibition >= 70%) on `COc1cc(OC)c(/C=C/C(=O)c2ccc(F)cc2F)c(OC)c1`
No

Threshold query (inhibition >= 70%) on `COc1cc(OC)c(/C=C/C(=O)c2cccc(C(F)(F)F)c2)c(OC)c1`
Yes

Threshold query (inhibition >= 70%) on `COc1ccc(/C=C/C(=O)c2ccc(C(F)(F)F)cc2)c(OC)c1`
No

Threshold query (inhibition >= 70%) on `COc1cc(/C=C/C(=O)c2ccc(C(F)(F)F)cc2)cc(OC)c1OC`
No

Threshold query (inhibition >= 70%) on `COc1cc(OC)c(OC)cc1/C=C/C(=O)c1cccc(C(F)(F)F)c1`
No

Threshold query (inhibition >= 70%) on `COc1ccc(/C=C/C(=O)c2ccc(F)cc2)c(OC)c1`
No

Threshold query (inhibition >= 70%) on `COc1cc(/C=C/C(=O)c2ccc(F)cc2)cc(OC)c1OC`
Yes

Threshold query (inhibition >= 70%) on `COc1cc(OC)c(OC)cc1/C=C/C(=O)c1ccc(C(F)(F)F)cc1`
No

Threshold query (inhibition >= 70%) on `COc1cc(OC)c(/C=C/C(=O)c2ccc(F)cc2)c(OC)c1`
No
